Provenance of the data: ChEMBL document CHEMBL1201862

- Tested on: HL-60
- Assay Overview: NCI tumour cell line growth inhibition, 48 h
Calls of active or inactive are those of the source. Cut-off read from the data, not from the text of the source: active = GI50 up to about 1.1 µM and inactive = higher.
Outcomes: true (1) (active), false (0) (inactive)

[
  {
    "Compound": "COC(=O)C(C)(Cc1ccc2c(c1)nnn2C(C)=O)NC(C)=O (stereo unspecified)",
    "Category Label": "false (0)"
  },
  {
    "Compound": "COc1ccc2c(c1)CC[C@@H]1C2CC[C@]2(C)C(=O)N(CCN3CCCC3)C(=O)CC12 (stereo partly specified)",
    "Category Label": "false (0)"
  },
  {
    "Compound": "Cn1c(=O)c2sc3c4sc5c(=O)n(C)c6ccccc6c5c4sc3c2c2ccccc21",
    "Category Label": "false (0)"
  },
  {
    "Compound": "C=C1CC(OC)(C(O)C(=O)N[C@H]2OCO[C@H]3C2O[C@H](C[C@@H](CO)OC)C(C)(C)C3OC)O[C@H](C)[C@@H]1C (stereo partly specified)",
    "Category Label": "true (1)"
  },
  {
    "Compound": "CCOc1cc2c(cc1O)C(O)C[C@@H]1[C@@H]2CC[C@]2(C)[C@@H](O)CC[C@@H]12 (stereo partly specified)",
    "Category Label": "true (1)"
  },
  {
    "Compound": "O=C(NN1C(=O)C(Cl)C1c1cccc([N+](=O)[O-])c1)c1ccccc1O (stereo unspecified)",
    "Category Label": "false (0)"
  },
  {
    "Compound": "Cc1cc(NS(=O)(=O)c2ccc(Nc3c4ccccc4nc4c(C(=O)NC(CO)(CO)CO)cccc34)cc2)no1",
    "Category Label": "false (0)"
  },
  {
    "Compound": "CC1(C)N/C(=C\\[N+](=O)[O-])C(C)(C)N1O",
    "Category Label": "false (0)"
  },
  {
    "Compound": "CC(C)CC(NC(=O)C(CI)Cc1ccccc1)C(=O)Nc1ccccc1 (stereo unspecified)",
    "Category Label": "false (0)"
  },
  {
    "Compound": "O=C(CCc1n[nH]c(=S)o1)Nc1cc(Cl)ccc1Cl",
    "Category Label": "false (0)"
  },
  {
    "Compound": "C[C@]12CC[C@@H]3c4ccccc4CC[C@H]3[C@@H]1CC[C@@H]2O",
    "Category Label": "false (0)"
  },
  {
    "Compound": "C=CCN1C(=O)/C(=C\\c2cc(C(C)(C)C)c(O)c(C(C)(C)C)c2)NC1=S",
    "Category Label": "true (1)"
  },
  {
    "Compound": "COc1cc2c(c(OC)c1OC)-c1[nH]ncc1CC2",
    "Category Label": "false (0)"
  },
  {
    "Compound": "O=C1N[C@@H]([C@H](CCCCCO)OC(=O)c2ccccc2)CO1",
    "Category Label": "false (0)"
  },
  {
    "Compound": "CCOc1ccc(C2=NN(CC)C(=O)C(C3C(=O)N(c4ccccc4)N=C3C)C2)cc1 (stereo unspecified)",
    "Category Label": "false (0)"
  },
  {
    "Compound": "CCN(CC)c1c(C)c(C(=O)OC)nn1-c1ccccc1",
    "Category Label": "false (0)"
  },
  {
    "Compound": "CC1SCc2nc3ccccc3n21 (stereo unspecified)",
    "Category Label": "false (0)"
  },
  {
    "Compound": "COc1ccc(N2C(=O)CSC2c2cc3cc(Br)ccc3nc2Cl)cc1 (stereo unspecified)",
    "Category Label": "false (0)"
  },
  {
    "Compound": "CC1=[N+](C)CCN1C",
    "Category Label": "false (0)"
  },
  {
    "Compound": "O=c1[nH]c(=O)n(C/C=C/CO)nc1Br",
    "Category Label": "false (0)"
  },
  {
    "Compound": "O=C(Nc1ccc(F)cc1)c1cc2ccc(O)cc2o/c1=N\\c1ccccc1F",
    "Category Label": "false (0)"
  }
]
